Below: a set of entries, each annotated with reported IC50.
target: CYP3A4 (Homo sapiens, UniProt P08684); construct: using human liver microsomes (pool from various individuals); from tissue; host or cells: human liver microsomes (pool from various individuals); assay: CYP inhibition assay with human liver microsomes; assay type: in vitro ADME; details: 30 min preincubation with test compound before substrate, read-out: CYP 3A4 Preincubation, 30 min.
Sequence (P08684 whole entry): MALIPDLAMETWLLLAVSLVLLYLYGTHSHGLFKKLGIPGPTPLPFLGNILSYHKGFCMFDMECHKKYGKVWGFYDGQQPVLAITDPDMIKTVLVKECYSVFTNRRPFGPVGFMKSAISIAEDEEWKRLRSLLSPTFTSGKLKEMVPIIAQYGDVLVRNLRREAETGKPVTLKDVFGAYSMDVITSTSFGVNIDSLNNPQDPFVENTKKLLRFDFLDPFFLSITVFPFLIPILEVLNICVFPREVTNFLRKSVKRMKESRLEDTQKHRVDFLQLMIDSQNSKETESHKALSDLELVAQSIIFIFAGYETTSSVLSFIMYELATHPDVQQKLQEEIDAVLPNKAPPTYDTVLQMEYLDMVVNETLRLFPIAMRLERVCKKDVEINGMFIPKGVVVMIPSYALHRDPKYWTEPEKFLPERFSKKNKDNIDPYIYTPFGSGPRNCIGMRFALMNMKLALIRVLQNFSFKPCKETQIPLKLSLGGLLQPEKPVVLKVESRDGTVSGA
Write the value in µM as a bare number.

[
  {
    "COMPOUND": "CCC(CCO)(c1ccc(Cl)cc1)c1c[nH]c2c(CS(C)(=O)=O)cccc12 (stereo not drawn)",
    "UNIT_OF_MEASUREMENT": "µM",
    "IC50": 8.8
  },
  {
    "COMPOUND": "CS(=O)(=O)Cc1cccc2c(C(c3ccc(Cl)cc3Cl)C3CC3)c[nH]c12 (stereo not drawn)",
    "UNIT_OF_MEASUREMENT": "µM",
    "IC50": 15.8
  },
  {
    "COMPOUND": "CS(=O)(=O)Cc1cccc2c(C(c3ccc(F)cc3)c3ccc(Cl)cc3F)c[nH]c12 (single isomer, unassigned)",
    "UNIT_OF_MEASUREMENT": "µM",
    "IC50": 11.2
  },
  {
    "COMPOUND": "C[S+]([O-])Cc1cccc2c(C3(C4CC4)CCc4cc(F)ccc43)c[nH]c12 (mixture of isomers)",
    "UNIT_OF_MEASUREMENT": "µM",
    "IC50": 14.4
  },
  {
    "COMPOUND": "CS(=O)(=O)Cc1cccc2c(C(CCC#N)c3ccc4sccc4c3)c[nH]c12 (stereo not drawn)",
    "UNIT_OF_MEASUREMENT": "µM",
    "IC50": 16.6
  },
  {
    "COMPOUND": "CS(=O)(=O)Cc1cccc2c(C(CCC#N)c3ccc4c(c3)OC(F)(F)O4)c[nH]c12 (stereo not drawn)",
    "UNIT_OF_MEASUREMENT": "µM",
    "IC50": 17
  },
  {
    "COMPOUND": "CS(=O)(=O)Cc1cccc2c(C(c3ccc(Cl)cc3)C3CC3(F)F)c[nH]c12 (single isomer, unassigned) [Example 261-2]",
    "UNIT_OF_MEASUREMENT": "µM",
    "IC50": 15
  },
  {
    "COMPOUND": "CS(=O)(=O)Cc1cccc2c(C(c3ccc(Cl)cc3)C3CC3)c[nH]c12 (stereo not drawn)",
    "UNIT_OF_MEASUREMENT": "µM",
    "IC50": 18.3
  }
]

Quickly give me recorded IC50 for CCC(CCC#N)(c1ccc(Cl)cc1)c1c[nH]c2c(CS(C)(=O)=O)cccc12 (stereo not drawn)
9.6

Quickly give me recorded IC50 for CS(=O)(=O)Cc1cc(F)cc2c(C(c3ccc(Cl)cc3F)C3CC3C#N)c[nH]c12 (single isomer, unassigned)
13.7

Quickly give me recorded IC50 for CS(=O)(=O)Cc1cccc2c(C(c3ccc(Cl)cc3)C3CC3C#N)c[nH]c12 (stereo not drawn)
18.2
